EXPERIMENTAL_SYSTEM: NR2F6 (Homo sapiens)
Construct: expressed in transfected cells; also transient transfection
ASSAY_NOTES: NR2F6 agonist screening, Firefly signal cmpd/DMSO
Assay type: cell-based
EXPERIMENTAL_CONDITIONS: C11 analogs follow set (Tables 2-10), repeat 1
Could you please report measured Firefly, cmpd/DMSO repeat 1 for the items listed next?
Just the number, please.

# input Which Firefly, cmpd/DMSO repeat 1 reading was recorded for the compound `COc1cccc(NC(=O)c2ccc3oc(=O)c(S(=O)(=O)c4ccc(C)cc4)cc3c2)c1` ?
# output 45.1

# input Same lookup for `COC(=O)c1ccc2oc(=O)c(S(=O)(=O)c3ccccc3)cc2c1` , please.
# output 24.6

# input Same lookup for `O=c1oc2ccc(Br)cc2cc1S(=O)(=O)c1cc(F)cc(F)c1` , please.
# output 1.8

# input Same lookup for `Cc1cccc(NC(=O)c2ccc3oc(=O)c(S(=O)(=O)c4ccc(Cl)cc4)cc3c2)c1` , please.
# output 9.8

====

ASSAY_NOTES: PK in rat plasma
Assay type: in vivo
EXPERIMENTAL_CONDITIONS: rat; Table 37; IV plasma, 1.13 mg/kg
EXPERIMENTAL_READOUT: AUC(0-inf) (ng·h/mL)
Respond numerically; units are ng·h/mL and should not be typed.

# input Which AUC(0-inf) reading was recorded for the compound COCCN[C@H]1CS(=O)(=O)C[C@@H]1S(=O)(=O)c1ccc(Cl)cc1 [Compound D136] ?
# output 242

====

EXPERIMENTAL_SYSTEM: NR2F6 (Homo sapiens, UniProt P10588)
Construct: expressed in transfected cells; also transient transfection
ASSAY_NOTES: NR2F6 agonist screening, Firefly signal cmpd/DMSO
Format: cell-based
EXPERIMENTAL_CONDITIONS: Table 9; repeat 2
Strictly below 2 in Firefly, cmpd/DMSO repeat 2: met. Otherwise: not met.

# input In plain terms, does CCOc1ccc(S(=O)(=O)c2cc3cccc(OCC)c3oc2=O)cc1 [Compound C252] come in under 2 for Firefly, cmpd/DMSO repeat 2?
# output not met

# input Same lookup for CCOc1cccc2cc(S(=O)(=O)c3cccc(Cl)c3)c(=O)oc12 [Compound C256] , please.
# output not met

# input Same lookup for COc1cccc2cc(S(=O)(=O)c3ccc(C)c(C)c3)c(=O)oc12 [Compound C242] , please.
# output met

# input Same lookup for COc1cccc2cc(S(=O)(=O)c3ccc(F)c(Cl)c3)c(=O)oc12 [Compound C250] , please.
# output met

# input Same lookup for CCOc1cccc2cc(S(=O)(=O)c3cc(F)cc(F)c3)c(=O)oc12 [Compound C230] , please.
# output not met

# input Same lookup for CCOc1cccc2cc(S(=O)(=O)c3ccc(Cl)c(Cl)c3)c(=O)oc12 [Compound C246] , please.
# output not met

# input Same lookup for COc1cccc2cc(S(=O)(=O)c3ccc(C(C)(C)C)cc3)c(=O)oc12 [Compound C234] , please.
# output met

# input Same lookup for CCOc1cccc2cc(S(=O)(=O)c3ccc(C(C)(C)C)cc3)c(=O)oc12 [Compound C240] , please.
# output met

# input Same lookup for COc1ccc(S(=O)(=O)c2cc3cccc(OC)c3oc2=O)cc1OC [Compound C247] , please.
# output met

====

EXPERIMENTAL_SYSTEM: NR2F6 (Homo sapiens)
Construct: expressed in transfected cells; also transient transfection
Sequence (P10588 1-404): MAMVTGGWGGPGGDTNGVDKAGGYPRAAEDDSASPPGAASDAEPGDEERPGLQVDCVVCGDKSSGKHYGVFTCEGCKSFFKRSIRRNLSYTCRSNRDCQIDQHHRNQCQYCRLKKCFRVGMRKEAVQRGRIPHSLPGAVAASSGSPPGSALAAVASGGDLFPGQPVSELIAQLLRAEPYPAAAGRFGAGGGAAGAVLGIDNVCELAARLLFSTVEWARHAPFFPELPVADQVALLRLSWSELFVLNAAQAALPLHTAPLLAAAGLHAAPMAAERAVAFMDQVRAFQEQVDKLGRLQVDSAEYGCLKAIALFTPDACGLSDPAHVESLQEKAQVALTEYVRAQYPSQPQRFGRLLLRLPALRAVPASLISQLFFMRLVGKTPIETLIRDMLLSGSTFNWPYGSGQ
ASSAY_NOTES: NR2F6 agonist screening, Firefly signal cmpd/DMSO
Assay type: cell-based
Parameters: unit of the concentration uncertain
EXPERIMENTAL_CONDITIONS: Concentration 2 (unit uncertain); NR2F6 full length
Could you please report measured Firefly NR2F6 full length, cmpd/DMSO (mean) for the items listed next?
Just the number, please.

# input Lookup: Firefly NR2F6 full length, cmpd/DMSO (mean) / NR2F6 (Homo sapiens) / `Cc1ccc(S(=O)(=O)NCc2cn3ccccc3n2)c(C)c1`
# output 1.0

# input Same lookup for `COc1ccc(S(=O)(=O)NCc2nc3nc(C)cc(C)n3n2)cc1OC` , please.
# output 1.2

# input Same lookup for `COc1ccc(OC)c(S(=O)(=O)NCc2nc3nc(C)cc(C)n3n2)c1` , please.
# output 1.1

# input Same lookup for `Cc1ccc(S(=O)(=O)NCc2cn3cccc(C)c3n2)cc1C` , please.
# output 1.1

# input Same lookup for `COc1ccc(Cl)cc1S(=O)(=O)NCc1nc2nc(C)cc(C)n2n1` , please.
# output 1.2
